Reference source: patent US8119681B2

Biological target: human GR (Homo sapiens, UniProt P04150)
Sequence (P04150 1-777): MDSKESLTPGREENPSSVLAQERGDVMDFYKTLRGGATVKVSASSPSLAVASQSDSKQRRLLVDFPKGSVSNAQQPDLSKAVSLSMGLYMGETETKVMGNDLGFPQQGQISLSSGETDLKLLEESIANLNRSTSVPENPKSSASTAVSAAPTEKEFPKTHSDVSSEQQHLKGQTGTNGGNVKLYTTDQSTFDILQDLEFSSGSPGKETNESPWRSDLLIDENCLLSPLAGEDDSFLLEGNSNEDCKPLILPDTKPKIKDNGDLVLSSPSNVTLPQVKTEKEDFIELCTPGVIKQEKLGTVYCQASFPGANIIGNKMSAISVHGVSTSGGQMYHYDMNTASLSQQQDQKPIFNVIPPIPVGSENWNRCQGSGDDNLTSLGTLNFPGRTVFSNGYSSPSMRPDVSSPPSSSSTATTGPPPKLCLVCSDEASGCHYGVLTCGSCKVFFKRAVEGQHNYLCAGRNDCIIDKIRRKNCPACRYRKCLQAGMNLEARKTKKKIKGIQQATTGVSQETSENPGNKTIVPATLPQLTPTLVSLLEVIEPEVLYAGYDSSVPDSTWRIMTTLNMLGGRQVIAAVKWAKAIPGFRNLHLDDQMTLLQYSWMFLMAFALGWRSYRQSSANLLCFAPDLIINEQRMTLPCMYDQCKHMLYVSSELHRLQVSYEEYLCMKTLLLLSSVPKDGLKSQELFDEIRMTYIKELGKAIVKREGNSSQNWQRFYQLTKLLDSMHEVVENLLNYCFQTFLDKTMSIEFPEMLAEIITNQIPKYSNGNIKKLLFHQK
Experiment: Transrepression Assay (GITAR), TNFα-β-lactamase reporter gene in U937 cells
Assay type: cell-based
Design: U937 cells contain an endogenous glucocorticoid receptor (GR); endogenous in cells; host or cells: U937 cells stably transfected with the TNF-α promoter/β-lactamase reporter only
Settings: U-937; Table 1; U937 cells; activity repressed by 100 nM dexamethasone = 100%; read-out: Transrepression U937 Cells GITAR Emax (%)
Entries and their measured Emax follow.
Numeric only. Scale: %

compound	Emax [%]
C[C@]12Cc3cnn(-c4ccc(F)cc4)c3C=C1CC[C@@]2(O)CCc1cccc(F)c1CNS(=O)(=O)C(Cl)Cl	63
CC(O)(C(N)=O)c1ccccc1CC[C@]1(O)CCC2=Cc3c(cnn3-c3ccc(F)cc3)C[C@@]21C (single isomer, unassigned)	67

Now look at this entry.
Give recorded Emax. CCS(=O)(=O)c1ccccc1CC[C@]1(O)CCC2=Cc3c(cnn3-c3ccc(F)cc3)C[C@@]21C
70

----------
Target: human GR (Homo sapiens)
Sequence (P04150 1-777): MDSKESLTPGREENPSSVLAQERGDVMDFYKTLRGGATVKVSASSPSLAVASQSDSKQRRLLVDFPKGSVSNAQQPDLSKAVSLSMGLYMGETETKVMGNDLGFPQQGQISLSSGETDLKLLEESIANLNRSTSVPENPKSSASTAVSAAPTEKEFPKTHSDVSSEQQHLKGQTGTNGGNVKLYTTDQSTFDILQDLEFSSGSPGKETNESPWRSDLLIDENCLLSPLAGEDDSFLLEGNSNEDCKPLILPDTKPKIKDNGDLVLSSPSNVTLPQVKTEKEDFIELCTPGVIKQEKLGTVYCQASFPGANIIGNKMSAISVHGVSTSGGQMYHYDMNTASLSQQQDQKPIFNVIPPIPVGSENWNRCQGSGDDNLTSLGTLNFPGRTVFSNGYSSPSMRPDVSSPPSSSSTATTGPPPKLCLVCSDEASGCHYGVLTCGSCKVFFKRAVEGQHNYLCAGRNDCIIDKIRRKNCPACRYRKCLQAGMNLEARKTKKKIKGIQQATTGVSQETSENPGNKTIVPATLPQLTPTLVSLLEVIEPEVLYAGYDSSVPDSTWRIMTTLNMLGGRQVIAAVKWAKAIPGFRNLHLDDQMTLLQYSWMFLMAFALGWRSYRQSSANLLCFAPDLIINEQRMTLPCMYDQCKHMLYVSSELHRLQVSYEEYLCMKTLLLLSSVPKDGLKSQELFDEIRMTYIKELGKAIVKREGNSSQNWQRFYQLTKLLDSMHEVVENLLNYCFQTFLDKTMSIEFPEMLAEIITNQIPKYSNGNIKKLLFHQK
Assay: Transrepression Assay (GITAR), TNFα-β-lactamase reporter gene in U937 cells
Assay type: cell-based
Parameters: U937 cells contain an endogenous glucocorticoid receptor (GR); endogenous in cells; host or cells: U937 cells stably transfected with the TNF-α promoter/β-lactamase reporter only
Settings: Table 1; U937 cells; IP = inflection point; read-out: Transrepression U937 Cells GITAR IP
Entries and their measured pEC50 follow.
pEC50 (log units): -log10 of the concentration in mol/L.

Some compounds with recorded pEC50:
compound	observed measurement
C[C@]12Cc3cnn(-c4ccc(F)cc4)c3C=C1CC[C@@]2(O)CCc1ccccc1C(=O)N1CC(=O)C1	6.72
Cc1ccc(C(N)=O)c(CC[C@]2(O)CCC3=Cc4c(cnn4-c4ccc(F)cc4)C[C@@]32C)c1	6.74
C[C@]12Cc3cnn(-c4ccc(F)cc4)c3C=C1CC[C@@]2(O)CCc1ccccc1C1(NS(=O)(=O)C2CC2)CC1	6.64
C[C@]12Cc3cnn(-c4ccc(F)cc4)c3C=C1CC[C@@]2(O)/C=C/c1ccccc1S(N)(=O)=O	6.56
CC(CNC(=O)c1ccccc1CC[C@]1(O)CCC2=Cc3c(cnn3-c3ccc(F)cc3)C[C@@]21C)C(F)(F)F (stereo partly drawn)	6.74

Give recorded pEC50. COC(=O)C(C)(C)NC(=O)c1c(F)cccc1CC[C@]1(O)CCC2=Cc3c(cnn3-c3ccc(F)cc3)C[C@@]21C
6.94

Give recorded pEC50. C[C@]12Cc3cnn(-c4ccc(F)cc4)c3C=C1CC[C@@]2(O)CCc1ccc(F)cc1C(N)=O
6.90

Give recorded pEC50. C=CCNC(=O)c1ccccc1CC[C@]1(O)CCC2=Cc3c(cnn3-c3ccc(F)cc3)C[C@@]21C
6.91

Give recorded pEC50. C[C@]12Cc3cnn(-c4ccc(F)c(F)c4)c3C=C1CC[C@@]2(O)CCc1cccc(F)c1C(N)=O
7.28

Give recorded pEC50. CC(C)(C)NC(=O)c1ccccc1CC[C@]1(O)CCC2=Cc3c(cnn3-c3ccc(F)cc3)C[C@@]21C
6.61

Give recorded pEC50. C[C@]12Cc3cnn(-c4ccc(F)cc4)c3C=C1CC[C@@]2(O)CCc1cccc(Cl)c1CC(N)=O
6.86

Give recorded pEC50. C=C(C)CNC(=O)c1c(F)cccc1CC[C@]1(O)CCC2=Cc3c(cnn3-c3ccc(F)cc3)C[C@@]21C
6.92

Give recorded pEC50. CC(C)C(O)(C(N)=O)c1ccccc1CC[C@]1(O)CCC2=Cc3c(cnn3-c3ccc(F)cc3)C[C@@]21C (stereo partly drawn)
7.40

Give recorded pEC50. CC(C)NC(=O)c1ccccc1CC[C@]1(O)CCC2=Cc3c(cnn3-c3ccc(F)cc3)C[C@@]21C
6.77

Give recorded pEC50. C[C@]12Cc3cnn(-c4ccc(Cl)cc4)c3C=C1CC[C@@]2(O)CCc1cccc(F)c1C(N)=O
7.23

----------
Entries and their measured pEC50 follow.
Target: human GR (Homo sapiens, UniProt P04150)
Sequence (P04150 1-777): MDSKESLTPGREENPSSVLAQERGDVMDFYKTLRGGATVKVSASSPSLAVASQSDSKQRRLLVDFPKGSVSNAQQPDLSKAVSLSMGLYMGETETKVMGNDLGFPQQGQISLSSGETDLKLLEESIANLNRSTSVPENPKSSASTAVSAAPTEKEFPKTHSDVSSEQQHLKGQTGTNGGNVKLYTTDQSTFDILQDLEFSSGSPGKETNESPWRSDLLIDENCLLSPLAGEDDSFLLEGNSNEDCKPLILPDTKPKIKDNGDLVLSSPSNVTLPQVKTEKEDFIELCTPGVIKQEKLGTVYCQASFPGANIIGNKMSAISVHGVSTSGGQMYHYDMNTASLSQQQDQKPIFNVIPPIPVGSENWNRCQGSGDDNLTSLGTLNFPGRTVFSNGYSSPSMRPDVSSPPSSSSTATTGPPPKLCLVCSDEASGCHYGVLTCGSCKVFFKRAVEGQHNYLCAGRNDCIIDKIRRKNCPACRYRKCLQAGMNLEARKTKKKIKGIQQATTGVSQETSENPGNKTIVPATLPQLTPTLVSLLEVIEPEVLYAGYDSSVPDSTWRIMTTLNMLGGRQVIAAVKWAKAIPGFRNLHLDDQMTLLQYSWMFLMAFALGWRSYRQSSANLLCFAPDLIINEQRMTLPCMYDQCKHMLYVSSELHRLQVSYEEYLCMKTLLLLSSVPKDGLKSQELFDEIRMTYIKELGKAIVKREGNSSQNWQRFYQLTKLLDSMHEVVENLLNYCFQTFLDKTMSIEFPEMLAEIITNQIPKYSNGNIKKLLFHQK
Assay: Transrepression Assay (GITAR), TNFα-β-lactamase reporter gene in U937 cells
Format: cell-based
Set-up: U937 cells contain an endogenous glucocorticoid receptor (GR); endogenous in cells; host or cells: U937 cells stably transfected with the TNF-α promoter/β-lactamase reporter only
Settings: Table 1; U937 cells; IP = inflection point; read-out: Transrepression U937 Cells GITAR IP
pEC50 (log units): -log10 of the concentration in mol/L.

Give recorded pEC50. C[C@]12Cc3cnn(-c4ccc(F)cc4)c3C=C1CC[C@@]2(O)CCc1ccccc1CNS(=O)(=O)C1CC1
6.75

Give recorded pEC50. CC(C)CNC(=O)c1c(F)cccc1CC[C@]1(O)CCC2=Cc3c(cnn3-c3ccc(F)cc3)C[C@@]21C
7.08

Give recorded pEC50. C[C@]12Cc3cnn(-c4ccc(F)cc4)c3C=C1CC[C@@]2(O)CCc1ccccc1N1CCC1=O
6.68
